biological target: MAGI1_2, Q96QZ7; experiment: holdup assay; design: key: below the threshold = too weak to quantify, mostly under pKd 3.1 to 4; settings: plain residues with an end cap or a label only (N-terminal biotin on a linker: ado-ado)
Sequence (Q96QZ7 456-580): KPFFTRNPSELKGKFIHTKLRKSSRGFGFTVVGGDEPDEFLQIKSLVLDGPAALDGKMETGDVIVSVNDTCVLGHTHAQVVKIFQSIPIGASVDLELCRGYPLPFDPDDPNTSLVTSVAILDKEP
measurement-kind: pKd

> print(dat)
                                      binder           data.value
 1                LESTTVGTSV [KARS1, Q15046]  below the threshold
 2              EDPRVEVTQF [SLC22A9, Q8IVM8]  below the threshold
 3                EDGESWEYQI [TRPV6, Q9H1D0]  below the threshold
 4                GEDRSPPTAL [MKNK1, Q9BUB5]  below the threshold
 5                DGVNEKVSCV [HTR2A, P28223]  below the threshold
 6                QLSFNTDTLC [ABCA2, Q9BZC7]  below the threshold
 7                AQRARSPSDV [GPR12, P47775]  below the threshold
 8                ILRKSTTTTV [PRR16, Q569H4]                 4.76
 9                 KPGKGSETVV [FZD4, Q9ULV1]                 4.47
10               NNNVVKVDSV [MTNR1A, P48039]  below the threshold
11                  EPQYQPGENL [SRC, P12931]  below the threshold
12                NISYRRESAI [KCNJ4, P48050]                 3.89
13                 DFLSTFHIRI [CIB2, O75838]  below the threshold
14                 SRSVVESDEL [MYPN, Q86TC9]  below the threshold
15                 APIAGFSSFV [SDK2, Q58EX2]  below the threshold
16                 TNSRHGETTV [FZD2, Q14332]                  4.2
17                  KSRVAFFEEL [NF2, P35240]                 3.53
18                RQKEVRESKC [SCN8A, Q9UQD0]                 3.67
19              PYSESDDDWC [CACNA1A, O00555]  below the threshold
20                RSSGGDDFWF [KCNV1, Q6PIU1]  below the threshold
21  KRPEMTSSSV [MUC3B, MUC3A, Q02505;Q9H195]  below the threshold
22               QRPYRRGSEI [KCNJ18, B7U540]  below the threshold
23               QSYPSKHDYV [CLDN18, P56856]  below the threshold
24                 TRKRSGEAAV [PFKM, P08237]  below the threshold
25              SVTSERETNI [SLC16A7, O60669]  below the threshold
26               AAVENKVTDL [PLXNB1, O43157]  below the threshold
27                SPDRDRESIV [SCN5A, Q14524]                 3.51
28              IDESKKEWLI [CNTNAP2, Q9UHC6]  below the threshold
29                PPGKHLVTEV [KCNA7, Q96RP8]                 4.24
30                DPAESMESLV [PTPRG, P23470]                 3.55
31                VLYPREGTEV [FOXI1, Q12951]                 3.95
32              PSHPRLQTHV [KIRREL2, Q6UWL6]                 4.85
